meta.source: ChEMBL document CHEMBL4368877

pIC50: −log10 of the molar value.
Here's what we have: pIC50 numbers for UniProt Q16654.
Sequence (Q16654 whole entry): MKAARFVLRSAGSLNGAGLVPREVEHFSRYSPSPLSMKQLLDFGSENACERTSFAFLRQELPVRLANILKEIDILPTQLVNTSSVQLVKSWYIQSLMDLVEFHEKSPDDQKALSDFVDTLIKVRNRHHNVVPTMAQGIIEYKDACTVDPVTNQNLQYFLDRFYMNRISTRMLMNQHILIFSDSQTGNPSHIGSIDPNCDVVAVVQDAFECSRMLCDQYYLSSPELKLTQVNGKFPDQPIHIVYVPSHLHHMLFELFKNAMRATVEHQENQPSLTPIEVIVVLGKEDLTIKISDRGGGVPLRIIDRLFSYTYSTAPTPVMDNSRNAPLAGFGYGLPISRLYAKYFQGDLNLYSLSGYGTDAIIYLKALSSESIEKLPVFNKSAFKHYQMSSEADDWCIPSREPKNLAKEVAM

[
  {
    "given_smiles": "OCCOc1ccc(CN2CCN(Cc3ccc(F)c(F)c3)[C@@H](CCO)C2)cc1",
    "pIC50": 5.17
  },
  {
    "given_smiles": "O=C(NCc1ccccc1-n1cccn1)c1cc(-c2ccccc2O)n[nH]1",
    "pIC50": 5.06
  },
  {
    "given_smiles": "CN(C)CCCn1ccnc1[C@H]1CCCN(C(=O)c2ccc3cc[nH]c3c2)C1",
    "pIC50": 4.91
  }
]

* * *

Below is a list of entries, each paired with its recorded IC50 value.
Target: [Pyruvate dehydrogenase (acetyl-transferring)] kinase isozyme 1, mitochondrial (Homo sapiens, UniProt Q15118)
Sequence (Q15118 whole entry): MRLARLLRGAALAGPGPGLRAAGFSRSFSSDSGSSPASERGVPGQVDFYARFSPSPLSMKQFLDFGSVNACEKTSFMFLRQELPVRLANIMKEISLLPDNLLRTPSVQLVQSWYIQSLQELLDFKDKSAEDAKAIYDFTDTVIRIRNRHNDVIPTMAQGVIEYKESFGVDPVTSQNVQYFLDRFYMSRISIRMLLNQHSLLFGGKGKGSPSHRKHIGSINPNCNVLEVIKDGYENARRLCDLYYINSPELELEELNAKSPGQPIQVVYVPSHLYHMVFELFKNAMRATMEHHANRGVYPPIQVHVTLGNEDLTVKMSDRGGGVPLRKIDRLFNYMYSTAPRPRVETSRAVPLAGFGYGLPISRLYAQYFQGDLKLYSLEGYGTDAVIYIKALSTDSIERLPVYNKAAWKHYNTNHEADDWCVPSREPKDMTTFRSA

[
  {
    "given_smiles": "O=C(NCc1ccccc1-n1cccn1)c1cc(-c2ccccc2O)n[nH]1",
    "IC50": "620 nM"
  },
  {
    "given_smiles": "CN(C)CCCn1ccnc1[C@H]1CCCN(C(=O)c2ccc3cc[nH]c3c2)C1",
    "IC50": "1260 nM"
  }
]

* * *

Molecular target: [Pyruvate dehydrogenase (acetyl-transferring)] kinase isozyme 2, mitochondrial (Homo sapiens)
Below is a list of entries, each paired with its recorded IC50 value.

[
  {
    "given_smiles": "O=C(NCc1ccccc1-n1cccn1)c1cc(-c2ccccc2O)n[nH]1",
    "IC50": "2600 nM"
  },
  {
    "given_smiles": "CN(C)CCCn1ccnc1[C@H]1CCCN(C(=O)c2ccc3cc[nH]c3c2)C1",
    "IC50": "2500 nM"
  },
  {
    "given_smiles": "OCCOc1ccc(CN2CCN(Cc3ccc(F)c(F)c3)[C@@H](CCO)C2)cc1",
    "IC50": "1500 nM"
  }
]
